System: Saccharomyces cerevisiae BY4741 SeMeCo community
method: z-score of subpopulation abundance vs DMSO median, subpopulation auxotrophic for HU; higher = larger share of this subpopulation than in DMSO controls
condition: 10 µM; 24 h; SM minimal medium; subpopulation (auxotrophy): HU
Structures can show the parent of a compound that is named as a salt.
measurement_type: z-score of subpopulation abundance
Give bare numbers.

Here is how some compounds turned out for z-score of subpopulation abundance.
CO/N=C(\C(=O)N[C@@H]1C(=O)N2C(C(=O)O)=CCS[C@H]12)c1csc(N)n1 [Ceftizoxime sodium]; -0.68
Cc1cnc(NC(=O)C2=C(O)c3ccccc3S(=O)(=O)N2C)s1 [Meloxicam]; -0.61
Cc1ccsc1/C=C/C1=NCCCN1C [Morantel tartrate]; 0.3
CC(C)(C)C(=O)C(Oc1ccc(Cl)cc1)n1ccnc1 (stereo not drawn) [Climbazole]; 4.67
O=C(c1ccccc1)c1ccc2n1CCC2C(=O)O (stereo not drawn) [Ketorolac tromethamine salt]; -0.79
COC(=O)C1=C(C)NC(C)=C(C(=O)OCC(C)C)C1c1ccccc1[N+](=O)[O-] (stereo not drawn) [Nisoldipine]; 0.04

Hey, can you go through the list below and give me z-score of subpopulation abundance for every item?
1. COc1ccc2[nH]c([S@@+]([O-])Cc3ncc(C)c(OC)c3C)nc2c1 [NEXIUM (esomeprazole magnesium)]
2. O=C(Cn1cnnn1)N[C@@H]1C(=O)N2C(C(=O)O)=C(CSc3nncs3)CS[C@H]12 [Ceftezole sodium]

Completion:
[0.68, 0.45]

* * *

System: Saccharomyces cerevisiae BY4741 SeMeCo community
method: z-score of prototroph abundance vs DMSO median; higher = larger share of this subpopulation than in DMSO controls
condition: 10 µM; 24 h; SM minimal medium; subpopulation (auxotrophy): Prototroph
Where a name gives a salt, the structure may show the parent alone.
Record form. Attribute: z-score of prototroph abundance. Fill in for each entry.
Numbers only.

O=C(Nc1c(Cl)cncc1Cl)c1ccc(OC(F)F)c(OCC2CC2)c1; 0.36
CN(Cc1cnc2nc(N)nc(N)c2n1)c1ccc(C(=O)N[C@@H](CCC(=O)O)C(=O)O)cc1 [Methotrexate disodium]; 0.74
CC[C@@H](CO)NCCN[C@@H](CC)CO [Ethambutol 2HCl]; -0.36

For every listed record, write down its z-score of prototroph abundance.
1. CCOC(=O)C1=C[C@@H](OC(CC)CC)[C@H](NC(C)=O)[C@@H](N)C1 [Oseltamivir Phosphate]
2. CCN[C@@H]1C[C@H](N)[C@@H](O[C@H]2OC(CN)=CC[C@H]2N)[C@H](O)[C@H]1O[C@H]1OC[C@](C)(O)[C@H](NC)[C@H]1O [Netilmicin Sulfate]
3. CO[C@H]1C[C@@H]2CC[C@@H](C)[C@@](O)(O2)C(=O)C(=O)N2CCCC[C@H]2C(=O)O[C@H]([C@H](C)C[C@@H]2CC[C@@H](OC(=O)C(C)(CO)CO)[C@H](OC)C2)CC(=O)[C@H](C)/C=C(\C)[C@@H](O)[C@@H](OC)C(=O)[C@H](C)C[C@H](C)/C=C/C=C/C=C/1C

Completion:
1. 1.28
2. -0.66
3. -18.4

* * *

Tested on: Saccharomyces cerevisiae BY4741 SeMeCo community
method: z-score of subpopulation abundance vs DMSO median, subpopulation auxotrophic for LUM; higher = larger share of this subpopulation than in DMSO controls
condition: 10 µM; 24 h; SM minimal medium; subpopulation (auxotrophy): LUM
Structures can show the parent of a compound that is named as a salt.
Field: z-score of subpopulation abundance. Provide a value for each of the molecules that follow.

Recorded z-score of subpopulation abundance, per entry:
O=c1[nH]c(=O)n([C@H]2C[C@H](O)[C@@H](CO)O2)cc1I; -0.31
CCOc1cc(N)c(Cl)cc1C(=O)NCC1CN(Cc2ccc(F)cc2)CCO1 (stereo not drawn) [Mosapride Citrate]; 0.54
Cc1ccc(S(=O)(=O)NC(=O)NN2CC3CCCC3C2)cc1 (stereo not drawn) [Gliclazide]; -0.57
CC[C@H]1OC(=O)C[C@@H](O)[C@H](C)[C@@H](O[C@@H]2O[C@H](C)[C@@H](O[C@H]3C[C@@](C)(O)[C@@H](O)[C@H](C)O3)[C@H](N(C)C)[C@H]2O)[C@@H](CC=O)C[C@@H](C)C(=O)/C=C/C(C)=C/[C@@H]1CO[C@@H]1O[C@H](C)[C@@H](O)[C@@H](OC)[C@H]1OC; 1.17
CO[C@H]1C[C@@H]2CC[C@@H](C)[C@@](O)(O2)C(=O)C(=O)N2CCCC[C@H]2C(=O)O[C@H]([C@H](C)C[C@@H]2CC[C@H](n3cnnn3)[C@H](OC)C2)CC(=O)[C@H](C)/C=C(\C)[C@@H](O)[C@@H](OC)C(=O)[C@H](C)C[C@H](C)/C=C/C=C/C=C/1C; 5.72
OCCN1CCN(CCCN2c3ccccc3Sc3ccc(Cl)cc32)CC1; 0.66
Cc1nc2n(c(=O)c1CCN1CCC(c3noc4cc(F)ccc34)CC1)CCCC2; 0.14
COc1ccc2[nH]c([S@@+]([O-])Cc3ncc(C)c(OC)c3C)nc2c1 [NEXIUM (esomeprazole magnesium)]; 0.51
CCN1CC(CCN2CCOCC2)C(c2ccccc2)(c2ccccc2)C1=O (stereo not drawn) [Doxapram HCl]; -0.43
CC1=C(C(=O)O)N2C(=O)[C@@H](NC(=O)[C@H](N)c3ccccc3)[C@H]2SC1; -0.42

Below are some molecules; for each one, tell me its z-score of subpopulation abundance.
1. O=c1c(-c2ccc(O)cc2)coc2c([C@@H]3O[C@H](CO)[C@@H](O)[C@H](O)[C@H]3O)c(O)ccc12
2. COCCCN1CCC(NC(=O)c2cc(Cl)c(N)c3c2OCC3)CC1 [Prucalopride]

Completion:
-1.14
-0.29

Prompt: # input molecule: CC(C)c1c(C(=O)Nc2ccccc2)c(-c2ccccc2)c(-c2ccc(F)cc2)n1CC[C@@H](O)C[C@@H](O)CC(=O)O [Atorvastatin Calcium] ; wanted: its z-score of subpopulation abundance
Completion: 4.29
